test: in vivo; conditions: rat, in vivo, po
Some compounds, each annotated with its measured selectivity ratio.
Please state the value as a number alone, without comment.

[
  {
    "Chemical structure": "Cc1oncc1C(=O)Nc1ccc(C(F)(F)F)cc1",
    "selectivity ratio": 100
  }
]

Here is another compound to look at.
Prompt: Recorded selectivity ratio for Cc1oncc1C(=O)Nc1ccc(F)cc1 , please?
Response: 41

====

assay: in vivo; conditions: rat, in vivo, po
Catalogue of LD50 readings, one per entry.
# number only, unit mg/kg dropped from output

[
  {
    "Molecule": "Cc1oncc1C(=O)Nc1ccc(C(F)(F)F)cc1 [compound A]",
    "LD50 [mg/kg]": 235
  }
]

Here is another molecule to look at.
Prompt: Which LD50 is reported for this molecule? Cc1oncc1C(=O)Nc1ccc(F)cc1 [compound B]
Response: 620

====

Listed next: entries and their corresponding selectivity ratio.
Assay: in vivo
Design: species or system male Sprague-Dawley rats
Settings: rat, in vivo, po; acute UD50 / ED50; read-out: Therapeutic index acute UD50/ED50
Experimental: The investigations were carried out in groups of 10 male Sprague-Dawley rats having a body weight of 200-300 g. 48 hours before administration of the compounds to be compared, and up to the time of killing the animals, food was withheld, but there was free access to drinking water. The rats were killed 24 hours after oral administration, and the stomach was removed under running water and inspected for lesions of the mucous membrane. All macroscopically visible lesions were rated as ulcers.
Enter a number only.

[
  {
    "Molecule": "Cc1oncc1C(=O)Nc1ccc(C(F)(F)F)cc1 [compound A]",
    "selectivity ratio": 25
  }
]

Let us examine a further case.
Prompt: What selectivity ratio value was documented for this molecule, Cc1oncc1C(=O)Nc1ccc(F)cc1 [compound B] ?
Response: 17

====

selectivity ratio overview
assay: in vivo; parameters: species or system male Sprague-Dawley rats; conditions: rat, in vivo, po; acute UD50 / ED50; read-out: Therapeutic index acute UD50/ED50

[
  {
    "Chemical structure": "Cc1oncc1C(=O)Nc1cc(C(F)(F)F)cc(C(F)(F)F)c1",
    "selectivity ratio": "~2"
  },
  {
    "Chemical structure": "Cc1oncc1C(=O)Nc1ccccc1C(F)(F)F",
    "selectivity ratio": "< 7"
  }
]

Kindly consider the entry below.
Prompt: Which selectivity ratio reading was recorded for the compound Cc1oncc1C(=O)Nc1cccc(C(F)(F)F)c1 ?
Response: < 12
